meta.source: patent US20210040184A1

Measured IC50 of virus neutralization (TZM-BL, luciferase), listed per entry.
Target: HIV-1 X1632_S2_B10 envelope (Env) on Env.IMC.LucR virus (HIV-1 clade G)
Test: cell-based or functional assay
Value kind: IC50 of virus neutralization (TZM-BL, luciferase)

# Binder, Readout value
data = [
    ("Cd4bs_H53MS_H54GY (antibody, V domains shown) VH: ADLVQSGAVVKKPGDSVRISCEAQGYRFPDYIIHWIRRAPGQGPEWMGWMNPSYGQVNIPWKFQGRVSMTRDTSIETAFLDLRGLKSDDTAVYYCVRDRSNGSGKRFESSNWFLDLWGRGTAVTIQS VL: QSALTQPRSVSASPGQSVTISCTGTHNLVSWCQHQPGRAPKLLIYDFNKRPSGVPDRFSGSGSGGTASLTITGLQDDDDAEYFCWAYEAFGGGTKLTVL", "9.87 µg/mL"),
    ("Germ23_NglycoSA_CysCV (antibody, V domains shown) VH: QVQLVQSGAEVKKPGASVKVSCEASGYRFPDYIIHWIRRAPGQGPEWMGWMNPMGGQVNIPWKFQGRVSMTRDTSIETAYMELRGLRSDDTAVYYCVRDRSNGAGKRFESSNWFLDLWGRGTLVTVSS VL: QSALTQPRSVSGSPGQSVTISCTGTHNLVSWVQHHPGKAPKLMIYDFNKRPSGVPDRFSGSGSGGTASLTISGLQAEDEAEYFCWAYEAFGGGTKLTVL", "> 50 µg/mL"),
    ("Germ23 (antibody, V domains shown) VH: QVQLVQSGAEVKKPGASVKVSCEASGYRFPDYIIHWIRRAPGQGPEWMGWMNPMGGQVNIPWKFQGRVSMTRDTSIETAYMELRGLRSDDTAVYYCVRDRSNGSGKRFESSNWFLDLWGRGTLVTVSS VL: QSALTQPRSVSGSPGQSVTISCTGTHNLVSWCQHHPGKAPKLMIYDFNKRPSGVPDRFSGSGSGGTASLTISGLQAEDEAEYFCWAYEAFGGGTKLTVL", "> 50 µg/mL"),
    ("NVS49-L1A2 (antibody, V domains shown) VH: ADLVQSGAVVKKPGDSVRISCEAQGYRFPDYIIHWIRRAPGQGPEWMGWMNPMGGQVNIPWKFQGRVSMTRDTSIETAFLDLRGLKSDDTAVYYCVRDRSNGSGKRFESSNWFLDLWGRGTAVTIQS VL: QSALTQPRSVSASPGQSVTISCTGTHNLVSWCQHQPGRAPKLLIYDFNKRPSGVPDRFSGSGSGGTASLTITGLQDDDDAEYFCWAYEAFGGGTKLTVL", "> 50 µg/mL"),
    ("Germ6 (antibody, V domains shown) VH: ADLVQSGAVVKKPGDSVRVSCEAQGYRFPDYIIHWIRRAPGQGPEWMGWMNPMGGQVNIPWKFQGRVSMTRDTSIETAYLDLRGLKSDDTAVYYCVRDRSNGSGKRFESSNWFLDLWGRGTAVTVQS VL: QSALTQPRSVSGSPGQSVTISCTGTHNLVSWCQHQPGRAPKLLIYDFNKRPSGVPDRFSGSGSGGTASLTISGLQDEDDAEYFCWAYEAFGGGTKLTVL", "> 50 µg/mL"),
]
